Biological target: T1, recombinant biotinylated CD71 extracellular domain (Sino Biologics) with an N-terminal 6His tag (human, UniProt P02786 89-760, biotinylated (site not stated))
T1 construct: extracellular domain; also called hCD71; huCD71 ECD
T1 sequence (P02786 other isoform, or with tags, fused parts or gaps): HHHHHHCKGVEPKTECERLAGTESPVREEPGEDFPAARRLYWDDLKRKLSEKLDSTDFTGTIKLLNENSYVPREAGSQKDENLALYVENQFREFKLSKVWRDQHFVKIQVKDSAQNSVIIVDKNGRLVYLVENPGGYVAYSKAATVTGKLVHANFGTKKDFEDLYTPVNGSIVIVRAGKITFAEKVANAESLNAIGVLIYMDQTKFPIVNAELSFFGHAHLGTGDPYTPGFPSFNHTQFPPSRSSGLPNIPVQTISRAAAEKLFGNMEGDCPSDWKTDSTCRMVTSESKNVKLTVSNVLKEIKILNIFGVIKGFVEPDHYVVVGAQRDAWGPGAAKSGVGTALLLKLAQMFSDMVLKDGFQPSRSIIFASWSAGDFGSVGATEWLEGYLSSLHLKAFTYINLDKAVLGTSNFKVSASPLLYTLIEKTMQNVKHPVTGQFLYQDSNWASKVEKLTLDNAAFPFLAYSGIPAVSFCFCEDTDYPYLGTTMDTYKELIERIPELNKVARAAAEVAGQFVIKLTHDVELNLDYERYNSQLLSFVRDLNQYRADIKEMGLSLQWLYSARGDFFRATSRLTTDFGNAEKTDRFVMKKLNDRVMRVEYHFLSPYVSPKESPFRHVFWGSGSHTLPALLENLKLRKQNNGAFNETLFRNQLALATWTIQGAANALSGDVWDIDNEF
Assay: primary solution ELISA screen
Binary call on RLU with cut-off 800000 RLU: strictly below means 1.0, and equality or higher means 0.0.

Record excerpt, results attached:
{"binder": "SEQ ID NO 2 (designed binder, not shown: small tags and cut ends, FN3 domain, hit of the apical domain panning) MLPAPKNLVVSEVTEDSARLSWQGVARAFDSFMINYSELFWMGEAIVLTVPGSERSYDLTGLKPGTEYVVRIKGVKGGKGSWPLHAHFTT", "class assignment": 1.0}
{"binder": "SEQ ID NO 85 (designed binder, not shown: small tags and cut ends, FN3 domain, hit of the apical domain panning) MLPAPKNLVVSRVTEDSARLSWTAPDAAFDSFIIEYFEPIPIGEAIVLTVPGSERSYDLTGLKPGTEYAVNIYGVKGGYLSHPLSAIFTT", "class assignment": 1.0}
{"binder": "SEQ ID NO 63 (designed binder, not shown: small tags and cut ends, FN3 domain, hit of the apical domain panning) MLPAPKNLVVSRVTEDSARLSWTAPDAAFDSFCISYYERMGRGEAIVLTVPGSERSYDLTGLKPGTEYMVYIFGVKGGLNSLPLSAIFTT", "class assignment": 0.0}
{"binder": "SEQ ID NO 91 (designed binder, not shown: small tags and cut ends, FN3 domain, hit of the apical domain panning) MLPAPKNLVVSRVTEDSARLSWTAPDAAFDSFQIHYWETQGFGEAIVLTVPGSERSYDLTGLKPGTEYPVLIPGVKGGPSSLPLSAIFTT", "class assignment": 1.0}
{"binder": "SEQ ID NO 82 (designed binder, not shown: small tags and cut ends, FN3 domain, hit of the apical domain panning) MLPAPKNLVVSRVTEDSARLSWTAPDAAFDSFLIPYAETSPSGEAIVLTVPGSERSYDLTGLKPGTEYSVLIHGVKGGDYSSPLSAIFTT", "class assignment": 0.0}
{"binder": "SEQ ID NO 80 (designed binder, not shown: small tags and cut ends, FN3 domain, hit of the apical domain panning) MLPAPKNLVVSRVTEDSARLSWTAPDAAFDSFWIDYEEEGVIGEAIYLHVPGSERSYDLTGLKPGTEYVVKIHGVKGGHPSHPLVAVFTT", "class assignment": 0.0}
{"binder": "SEQ ID NO 15 (designed binder, not shown: small tags and cut ends, FN3 domain, hit of the apical domain panning) MLPAPKNLVVSRVTEDSARLSWQGVARAFDSFLITYREQIFAGEVIVLTVPGSERSYDLTGLKPGTECPVWIQGVKGGSPSAPLSAEFTT", "class assignment": 1.0}

Please determine if SEQ ID NO 50 (designed binder, not shown: small tags and cut ends, FN3 domain, hit of the apical domain panning) MSLPAPKNLVVSRVTEDSARLSWTAPDAAFDSFTIHYREFQLSGEAIVLTVPGSERSYDLTGLKPGTEYDVPIEGVKGGPGSRPLSAIFTT is below 800000 RLU in terms of RLU.
1.0
